Test system: SF-295 CNS
Assay: NCI-60 one-dose screen, 48 h
Settings: 10 µM
Method: Cells are grown in 96 well plates and exposed to the test compound for 48 hours. Compounds are tested at a single concentration, which is 10^-5 M for most compounds. The reported endpoint is percent growth (GI% or GIPRCNT), where numbers from 0 - 100% represent growth inhibition, and numbers from -100% - 0 represent cell death. For example, a value of 40 represents 60% growth inhibition. A value of 0 means no net growth occurred over the course of the experiment. […]
About 83,000 compounds went through this panel and 20% of them were active in at least one assay; those are over-represented in the sample as a whole. The source made the active and inactive calls. How the source made its calls: active means growth percent below 10; inactive means the rest.
Outcomes: yes (1) = active, no (0) = inactive

compound | class-name
NC(=S)N=Nc1c(O)c2ccccc2c2ccccc12 | no (0)
CCN(CC)Cc1cc(Nc2ccnc3cc(Cl)ccc23)ccc1OC | no (0)
CCCCCCCCCCCC[n+]1ccc(C(N)=O)cc1 | no (0)
CCN(CC)CCC(CNc1c(C)cnc2cc(Cl)ccc12)c1ccc(Cl)c(Cl)c1 (stereo unspecified) | no (0)
COc1ccc(-c2cc(/C=C3\C(=O)Nc4ccc(Cl)cc43)[nH]n2)cc1OC | no (0)
Clc1cc2c(c(CSc3nc4ccccc4n4cccc34)c1)OCOC2 | no (0)
COc1ccc2c(c1)C(=O)c1c-2c(OCCN(C)C)nc2ccccc12 | no (0)
CCN(CCCCCCN1CC(=O)N(CCCCCCN(CC)Cc2ccccc2OC)CC1=O)Cc1ccccc1OC | no (0)
Cc1c(Cl)cccc1NC(=O)c1sc2nc3c(cc2c1N)C(=O)CCC3 | yes (1)
COc1cccc(C2C3=C(COC3=O)N(CCO)c3cc(OC)ccc32)c1 (stereo unspecified) | yes (1)
COc1cc(NC(=O)CSc2nc3ccccc3c(=O)n2CCc2ccccc2)cc(OC)c1OC | no (0)
c1ccc(C(NC2CC3CCC2C3)c2ccccc2)cc1 (stereo unspecified) | no (0)
O=C(/C(=C/c1ccccc1)CN1CCCCC1)c1ccccc1 | no (0)
CCCCCCCCCCCCCCCCN(C(C)c1ccccc1)S(=O)(=O)c1ccc(OC)c(N)c1 (stereo unspecified) | no (0)
O=c1[nH]c2ccc(Cl)cc2c2ccccc12 | no (0)
CCN(CC)CCC(CNc1c(C)cnc2cc(Cl)ccc12)c1ccc(Cl)cc1 (stereo unspecified) | no (0)
COc1cc(NC(=O)c2sc3nc4c(cc3c2N)C(O)CCC4)cc(OC)c1 (stereo unspecified) | no (0)
CN(C)CCCn1c(=O)c2ccccc2c2cnc3[nH]ccc3c21 | no (0)
Cc1ccc(-c2n[nH]c(=O)c3noc(-c4ccc(C)cc4)c23)cc1 | no (0)
O=C1C(=O)c2ccccc2C(O)=C1CCCc1ccc(C2CCCCCC2)cc1 | yes (1)
CC(=O)CSC(C)=O | no (0)
COc1cccc(-c2cc(-c3cccc(NS(C)(=O)=O)c3)nc(N)c2C#N)c1O | yes (1)
COc1ccc(NC(=O)CSc2nc3ccccc3c(=O)n2CCc2ccccc2)cc1 | no (0)
O=C(Nc1ccc(CN2CCc3nc4cc(O)c(O)cc4cc32)cc1)c1ccc(Cl)c(Cl)c1 | no (0)
C#Cc1ccc(-n2c(/C=C/c3ccc(C(F)(F)F)cc3)nc3ncccc3c2=O)cc1 | no (0)
CN(C)CCNC(=O)c1cccn2c(=O)c3cc4ccccc4cc3nc12 | yes (1)
O=C1/C(=C\c2ccccc2)CN(C(=O)c2ccccc2)C/C1=C\c1ccccc1 | no (0)
COc1ccc2c(c1)O/C(=C\c1ccc([N+](=O)[O-])o1)C2=O | yes (1)
CCc1ccc2c(c1)N(CCO)C1=C(C(=O)OC1)C2c1ccccc1 (stereo unspecified) | no (0)
COc1cccc(NC(=O)c2sc3nc4c(cc3c2N)C(O)CCC4)c1 (stereo unspecified) | yes (1)
Cc1ccc(NC(=O)Nc2cccnc2)cc1NC(=O)Nc1cccnc1 | no (0)
ClCCOCCn1cnc2c(Cl)nc(Cl)nc21 | no (0)
CSc1cc(SC)ncn1 | no (0)
S=C1SCC(c2ccccc2)S1 (stereo unspecified) | no (0)
CC(C)C[C@H](NC(=O)[C@H](Cc1cccc2ccccc12)NS(=O)(=O)c1cccc2cccnc12)B(O)O | yes (1)
O=C(Nc1ccncc1)C(=O)c1cn(S(=O)(=O)c2cccc(Cl)c2)c2ccccc12 | no (0)
